# IC50 values compiled below
tgt: UniProt:Q16539
Sequence (Q16539 whole entry, looked up): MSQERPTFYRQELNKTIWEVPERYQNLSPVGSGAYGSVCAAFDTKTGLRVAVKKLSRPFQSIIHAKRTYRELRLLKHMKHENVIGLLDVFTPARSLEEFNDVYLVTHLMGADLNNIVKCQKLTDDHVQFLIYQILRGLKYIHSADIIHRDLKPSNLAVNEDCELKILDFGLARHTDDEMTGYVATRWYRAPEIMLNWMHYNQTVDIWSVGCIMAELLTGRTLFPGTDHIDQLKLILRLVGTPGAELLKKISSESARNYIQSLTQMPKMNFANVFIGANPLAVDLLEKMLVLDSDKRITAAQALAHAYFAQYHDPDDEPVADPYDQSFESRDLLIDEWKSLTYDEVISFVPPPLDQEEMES
assay.method.text: CSBP Binding Inhibition

molecule	tgt	IC50
CC(C)Oc1nccc(-c2c(-c3ccc(F)cc3)ncn2C2CCC(=O)CC2)n1	UniProt:Q16539	< 50 µM
O=C1CCC(n2cnc(-c3ccc(F)cc3)c2-c2ccnc(O)n2)CC1	UniProt:Q16539	< 50 µM
CC(C)Oc1nccc(-c2c(-c3ccc(F)cc3)ncn2C2CCC(O)CC2)n1 (configuration not stated)	UniProt:Q16539	< 50 µM
COc1nccc(-c2c(-c3ccc(F)cc3)ncn2[C@H]2CC[C@@](C)(O)CC2)n1.COc1nccc(-c2c(-c3ccc(F)cc3)ncn2[C@H]2CC[C@](C)(O)CC2)n1	UniProt:Q16539	< 50 µM
COc1nccc(-c2c(-c3ccc(F)cc3)ncn2C2CCC(=O)CC2)n1	UniProt:Q16539	< 50 µM
CSc1nccc(-c2c(-c3ccc(F)cc3)ncn2[C@H]2CC[C@H](O)CC2)n1	UniProt:Q16539	< 50 µM
CSc1nccc(-c2c(-c3ccc(F)cc3)ncn2C2CCC(=O)CC2)n1	UniProt:Q16539	< 50 µM
